- STUDY_TARGET: T1, HLA-DRB1*1302 (human)
- T1 chain 1: not shown
- T1 chain 2: not shown
- EXPERIMENTAL_PROTOCOL: competition with 125I probe peptide, purified HLA
- RUN_CONDITIONS: remark: other sources report otherwise

BINDER	IC50
RWCIPWQRLLLTASL [CEA.10]	318 nM

Just for reference, patent US20040146519A1 is where these values come from.
